# Method: cells
# Type: cell-based
# Conditions Used: Homo sapiens, HCT-116, 1 h
pEC50: −log10 of the molar value.
Experimental Readout: pEC50

1) Cc1cc(Nc2nccn3c(-c4cn[nH]c4)cnc23)sn1 : 5.89
2) CS(=O)(=O)N1CCC(c2cc(Nc3nccn4c(-c5cn[nH]c5)cnc34)sn2)CC1 : 5.89

====

# Target Desc: UniProtKB O60674
# Sequence (O60674 whole entry): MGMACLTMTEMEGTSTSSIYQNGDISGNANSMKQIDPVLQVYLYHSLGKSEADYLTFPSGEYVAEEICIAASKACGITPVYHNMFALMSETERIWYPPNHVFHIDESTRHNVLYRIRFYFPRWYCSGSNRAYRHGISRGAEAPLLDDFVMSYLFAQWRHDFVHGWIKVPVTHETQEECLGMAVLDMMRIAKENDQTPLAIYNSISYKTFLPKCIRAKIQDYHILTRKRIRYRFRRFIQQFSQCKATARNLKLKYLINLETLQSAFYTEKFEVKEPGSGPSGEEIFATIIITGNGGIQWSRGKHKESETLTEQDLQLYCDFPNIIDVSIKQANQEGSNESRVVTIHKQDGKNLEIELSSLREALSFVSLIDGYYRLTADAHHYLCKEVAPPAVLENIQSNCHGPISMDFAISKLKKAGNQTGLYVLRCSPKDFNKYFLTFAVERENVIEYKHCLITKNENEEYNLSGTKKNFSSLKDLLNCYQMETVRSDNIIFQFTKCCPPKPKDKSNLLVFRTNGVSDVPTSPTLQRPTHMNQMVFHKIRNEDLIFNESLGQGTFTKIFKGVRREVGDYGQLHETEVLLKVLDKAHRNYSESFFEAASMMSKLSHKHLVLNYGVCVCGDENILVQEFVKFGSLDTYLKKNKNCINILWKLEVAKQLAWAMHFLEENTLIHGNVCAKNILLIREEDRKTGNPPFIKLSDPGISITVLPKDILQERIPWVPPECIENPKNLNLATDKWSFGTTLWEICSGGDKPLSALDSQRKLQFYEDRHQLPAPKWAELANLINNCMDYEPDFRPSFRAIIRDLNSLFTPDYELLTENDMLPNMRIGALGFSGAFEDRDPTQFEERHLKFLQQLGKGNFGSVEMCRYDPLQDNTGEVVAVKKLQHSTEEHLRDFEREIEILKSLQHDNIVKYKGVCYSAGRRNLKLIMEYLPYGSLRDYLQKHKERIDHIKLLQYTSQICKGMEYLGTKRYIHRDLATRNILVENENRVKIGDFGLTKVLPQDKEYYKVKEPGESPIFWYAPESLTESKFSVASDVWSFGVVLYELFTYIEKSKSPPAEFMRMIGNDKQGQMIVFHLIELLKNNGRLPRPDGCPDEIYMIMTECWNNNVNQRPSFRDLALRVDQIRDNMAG
Experimental Readout: IC50

1. CSc1cn2c(-c3cn[nH]c3)cnc2c(Nc2cc(C)ns2)n1 : > 10 µM

====

// pEC50 lookup, one value per entry
# Method: cells
# Type: cell-based
# Conditions Used: Homo sapiens, HCT-116, 1 h
pEC50: −log10 of the molar value.
Experimental Readout: pEC50

1. Cc1cc(Nc2nc(C(F)(F)F)cn3c(-c4cn[nH]c4)cnc23)sn1 : < 5.00
2. Cc1cc(Nc2nc(C#N)cn3c(-c4cn[nH]c4)cnc23)sn1 : < 5.00
3. Cc1cc(Nc2nc([S+](C)[O-])cn3c(-c4cn[nH]c4)cnc23)sn1 (racemic) : < 5.00
4. Cc1cc(Nc2nc(-c3cccnc3)cn3c(-c4cn[nH]c4)cnc23)sn1 : < 5.00

====

Entries annotated with measured IC50
# Target Desc: Aurora kinase B (Homo sapiens, UniProt Q96GD4)
# Sequence (Q96GD4 whole entry): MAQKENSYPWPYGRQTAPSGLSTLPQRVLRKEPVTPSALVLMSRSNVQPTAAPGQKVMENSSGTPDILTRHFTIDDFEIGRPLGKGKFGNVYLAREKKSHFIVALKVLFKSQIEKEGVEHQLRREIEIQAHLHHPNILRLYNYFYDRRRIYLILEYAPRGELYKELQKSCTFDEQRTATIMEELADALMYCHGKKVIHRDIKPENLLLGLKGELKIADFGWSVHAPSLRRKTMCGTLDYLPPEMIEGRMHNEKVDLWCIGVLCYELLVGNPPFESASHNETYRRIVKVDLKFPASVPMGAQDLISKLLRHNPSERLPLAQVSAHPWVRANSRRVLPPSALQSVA
# Method: Inhibition of aurora B kinase using 5TAMRA-GRTGRRNSICOOH as substrate by fluorescent assay
# Conditions Used: read-out: IC50
Experimental Readout: IC50

1. Cc1cc(Nc2nc(S(C)(=O)=O)cn3c(-c4cn[nH]c4)cnc23)sn1 : > 3000 nM
2. CCc1cn2c(-c3cn[nH]c3)cnc2c(Nc2cc(C)ns2)n1 : ≤ 13 nM
3. CSc1cn2c(-c3cn[nH]c3)cnc2c(Nc2cc(C)ns2)n1 : ≤ 13 nM
4. Cc1cc(Nc2nccn3c(-c4cn[nH]c4)cnc23)sn1 : ≤ 13 nM
5. Cc1cc(Nc2nc(C)cn3c(-c4cn[nH]c4)cnc23)sn1 : ≤ 13 nM

====

Protein target, amino acids: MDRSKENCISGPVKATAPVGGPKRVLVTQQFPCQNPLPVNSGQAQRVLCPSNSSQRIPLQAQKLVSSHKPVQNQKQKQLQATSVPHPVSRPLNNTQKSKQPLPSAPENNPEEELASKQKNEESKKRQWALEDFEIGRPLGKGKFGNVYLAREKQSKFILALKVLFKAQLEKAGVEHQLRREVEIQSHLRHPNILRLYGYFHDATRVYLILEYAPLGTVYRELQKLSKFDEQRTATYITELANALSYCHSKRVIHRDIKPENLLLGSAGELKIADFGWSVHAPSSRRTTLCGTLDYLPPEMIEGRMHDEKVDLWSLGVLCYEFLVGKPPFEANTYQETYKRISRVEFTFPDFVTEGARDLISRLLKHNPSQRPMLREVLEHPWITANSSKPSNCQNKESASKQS
Experimental Readout: IC50

1. Cc1cc(Nc2nccn3c(-c4cn[nH]c4)cnc23)sn1 : ≤ 0.004 µM
2. CN(C)c1cccc(Nc2nccn3c(-c4cnn(C)c4)cnc23)c1 : > 10 µM
3. Cc1csc(Nc2nccn3c(-c4cnn(C)c4)cnc23)n1 : > 10 µM

====

EC50: recorded values
# Method: cells
# Type: cell-based
# Conditions Used: Homo sapiens, HCT-116, 1 h
Experimental Readout: EC50

1. Cc1cc(Nc2nc(CCN)cn3c(-c4cn[nH]c4)cnc23)sn1 : > 10 µM
2. Cc1cc(Nc2nc(SCCN(C)C)cn3c(-c4cn[nH]c4)cnc23)sn1 : > 10 µM
3. Cc1cc(Nc2nc(CN3CCOCC3)cn3c(-c4cn[nH]c4)cnc23)sn1 : > 10 µM
